Test system: MCF7 cells
ASSAY SUMMARY: Whole cell cytotoxicity assay: Sulforhodamine B
Format: cell-based, Human
CONDITIONS USED: Homo sapiens; compound concentration 100 μM; MCF7 cell growth, 48 hours with drug, SRB staining
PROPERTY MEASURED: inhibition at 100 µM (%)
One number for each entry, in %.

The following compounds have reported results that may help.
{"LINE NOTATION": "O=C(NO)c1cnc(N2CCN(S(=O)(=O)c3ccc(-c4cc(CN5CCCC5)co4)cc3)CC2)s1", "MEASUREMENT TARGET": "MCF7 cells", "inhibition at 100 µM [%]": 83}
{"LINE NOTATION": "Cc1ccc(S(=O)(=O)N2CCN(c3ncc(C(=O)NO)s3)CC2)c(CN2CCCC2)c1", "MEASUREMENT TARGET": "MCF7 cells", "inhibition at 100 µM [%]": 92}
{"LINE NOTATION": "CCS(=O)(=O)N1CCN(c2ncc(C(=O)NO)s2)CC1", "MEASUREMENT TARGET": "MCF7 cells", "inhibition at 100 µM [%]": 30}

Task: Any idea what its inhibition at 100 µM is? The compound is O=C(NO)c1cnc(N2CCN(S(=O)(=O)c3ccc(-c4csc(CN5CCCC5)c4)cc3)CC2)s1
Result: 99

---

Kindly supply the reported % inhibition HDAC @ 100 μM values for the records listed here.
System: HDAC (HeLa cell nuclear extract, a mosaic of HDAC enzymes)
ASSAY SUMMARY: In vitro fluorescent histone deacetylase assay (Biomol HDAC fluorescent activity kit)
Format: biochemical
CONDITIONS USED: compound concentration 100 μM; HeLa cell nuclear extract as HDAC source; substrate 50 μM, 10 min, room temperature
One number for each entry, in %.

The following compounds have reported results that may help.
{"LINE NOTATION": "O=C(NO)c1cnc(N2CCN(S(=O)(=O)c3ccc(-c4cncnc4)cc3)CC2)s1", "% inhibition HDAC @ 100 μM, %": 99}
{"LINE NOTATION": "CN(C)Cc1ccc(S(=O)(=O)N2CCN(c3ncc(C(=O)NO)s3)CC2)cc1", "% inhibition HDAC @ 100 μM, %": 98}
{"LINE NOTATION": "CN(C)Cc1cccc(S(=O)(=O)N2CCN(c3ncc(C(=O)NO)s3)CC2)c1", "% inhibition HDAC @ 100 μM, %": 99}
{"LINE NOTATION": "Cc1cccc(Cl)c1S(=O)(=O)N1CCN(c2ncc(C(=O)NO)s2)CC1", "% inhibition HDAC @ 100 μM, %": 100}
{"LINE NOTATION": "O=C(NO)c1cnc(N2CCN(S(=O)(=O)c3cccc(-c4ccccc4)c3)CC2)s1", "% inhibition HDAC @ 100 μM, %": 100}

// for each compound below, give its % inhibition HDAC @ 100 μM
1. O=C(NO)c1cnc(N2CCN(S(=O)(=O)c3ccc(-c4ccc(CN5CCCC5)s4)cc3)CC2)s1
2. CC(=O)Nc1ccc(-c2ccc(S(=O)(=O)N3CCN(c4ncc(C(=O)NO)s4)CC3)cc2)cc1
3. O=C(NO)c1cnc(N2CCN(S(=O)(=O)c3ccc(-c4ccsc4CN4CCCC4)cc3)CC2)s1

Result:
[99, 100, 99]

---

Kindly supply the reported inhibition at 100 µM values for the records listed here.
Tested on: MCF7 cells
ASSAY SUMMARY: Whole cell cytotoxicity assay: Sulforhodamine B
Type: cell-based, Human
CONDITIONS USED: Homo sapiens; compound concentration 100 μM; MCF7 cell growth, 48 hours with drug, SRB staining
Give bare numbers, in %.

The following compounds have reported results that may help.
{"LINE NOTATION": "CN(C)Cc1ccoc1-c1ccc(S(=O)(=O)N2CCN(c3ncc(C(=O)NO)s3)CC2)cc1", "PROPERTY MEASURED": "inhibition at 100 µM", "NUMBER": 99}
{"LINE NOTATION": "Cc1ccc(C)c(S(=O)(=O)N2CCN(c3ncc(C(=O)NO)s3)CC2)c1", "PROPERTY MEASURED": "inhibition at 100 µM", "NUMBER": 98}
{"LINE NOTATION": "O=C(NO)c1cnc(N2CCN(S(=O)(=O)c3ccc(-c4ccccc4CN4CCCC4)cc3)CC2)s1", "PROPERTY MEASURED": "inhibition at 100 µM", "NUMBER": 95}
{"LINE NOTATION": "CN(CCO)Cc1cccc(-c2ccc(S(=O)(=O)N3CCN(c4ncc(C(=O)NO)s4)CC3)cc2)c1", "PROPERTY MEASURED": "inhibition at 100 µM", "NUMBER": 98}
{"LINE NOTATION": "C=CCN(CC=C)Cc1cccc(-c2ccc(S(=O)(=O)N3CCN(c4ncc(C(=O)NO)s4)CC3)cc2)c1", "PROPERTY MEASURED": "inhibition at 100 µM", "NUMBER": 66}
{"LINE NOTATION": "O=C(NO)c1cnc(N2CCN(S(=O)(=O)C(F)(F)F)CC2)s1", "PROPERTY MEASURED": "inhibition at 100 µM", "NUMBER": 76}

// for each compound below, give its inhibition at 100 µM
1. CN(C)Cc1ccsc1-c1ccc(S(=O)(=O)N2CCN(c3ncc(C(=O)NO)s3)CC2)cc1
2. O=C(NO)c1cnc(N2CCN(S(=O)(=O)c3ccc(-c4cccc(CN5CCNCC5)c4)cc3)CC2)s1

Result:
1: 98; 2: 95

---

Kindly supply the reported % inhibition HDAC @ 100 μM values for the records listed here.
Test system: HDAC (HeLa cell nuclear extract, a mosaic of HDAC enzymes)
ASSAY SUMMARY: In vitro fluorescent histone deacetylase assay (Biomol HDAC fluorescent activity kit)
Assay type: biochemical
CONDITIONS USED: compound concentration 100 μM; HeLa cell nuclear extract as HDAC source; substrate 50 μM, 10 min, room temperature
Numbers only, in %.

// for each compound below, give its % inhibition HDAC @ 100 μM
1. CN1CCN(Cc2cccc(-c3ccc(S(=O)(=O)N4CCN(c5ncc(C(=O)NO)s5)CC4)cc3)c2)CC1
2. O=C(NO)c1cnc(N2CCN(S(=O)(=O)c3ccc(CN4CCCC4)cc3)CC2)s1
3. O=C(NO)c1cnc(N2CCN(S(=O)(=O)c3ccc4nsnc4c3)CC2)s1
4. O=C(NO)c1cnc(N2CCN(S(=O)(=O)c3ccc(Br)s3)CC2)s1
5. O=C(NO)c1cnc(N2CCN(S(=O)(=O)c3ccc(-c4sccc4CN4CCCC4)cc3)CC2)s1

Result:
1: 100; 2: 99; 3: 98; 4: 29; 5: 99

// for each compound below, give its % inhibition HDAC @ 100 μM
1. O=C(NO)c1cnc(N2CCN(S(=O)(=O)c3cccc(CN4CCCC4)c3)CC2)s1
2. O=C(NO)c1cnc(N2CCN(S(=O)(=O)c3ccc(CN4CCOCC4)cc3)CC2)s1
3. CSc1nccc(-c2ccc(S(=O)(=O)N3CCN(c4ncc(C(=O)NO)s4)CC3)s2)n1
4. O=C(NO)c1cnc(N2CCN(S(=O)(=O)c3ccc(Oc4ccccc4)nc3)CC2)s1
5. O=C(NO)c1cnc(N2CCN(S(=O)(=O)c3ccc(-c4cccc(F)c4)cc3)CC2)s1

Result:
[98, 99, 95, 96, 95]

---

Kindly supply the reported % inhibition HDAC @ 100 μM values for the records listed here.
Test system: HDAC (HeLa cell nuclear extract, a mosaic of HDAC enzymes)
ASSAY SUMMARY: In vitro fluorescent histone deacetylase assay (Biomol HDAC fluorescent activity kit)
Format: biochemical
CONDITIONS USED: compound concentration 100 μM; HeLa cell nuclear extract as HDAC source; substrate 50 μM, 10 min, room temperature
Protocol: Histone deacetylase (HDAC) activity assays were performed using the HDAC fluorescent activity assay/drug discovery kit (Biomol Research Laboratories, Plymouth Meeting, Pa.) essentially according to the manufacturer's instructions. […] DMSO was determined in a separate trial to have no significant effect on the activity of this assay at concentrations up to 5%; the final DMSO concentration in the wells was no more than 2% and therefore DMSO effects were safely neglected. […]
Numbers only, in %.

The following compounds have reported results that may help.
{"LINE NOTATION": "O=C(NO)c1cnc(N2CCN(S(=O)(=O)CCc3ccccc3)CC2)s1", "% inhibition HDAC @ 100 μM / %": 98}
{"LINE NOTATION": "O=C(NO)c1cnc(N2CCN(S(=O)(=O)c3ccc(-c4cccnc4)cc3)CC2)s1", "% inhibition HDAC @ 100 μM / %": 100}
{"LINE NOTATION": "O=C(NO)c1cnc(N2CCN(S(=O)(=O)c3ccc(-c4cccc(CN5CCCCC5)c4)cc3)CC2)s1", "% inhibition HDAC @ 100 μM / %": 100}

// for each compound below, give its % inhibition HDAC @ 100 μM
1. CCN(C)Cc1cccc(-c2ccc(S(=O)(=O)N3CCN(c4ncc(C(=O)NO)s4)CC3)cc2)c1
2. O=C(NO)c1cnc(N2CCN(S(=O)(=O)c3cc4ccccc4s3)CC2)s1
3. CC(C)N(C)Cc1cccc(-c2ccc(S(=O)(=O)N3CCN(c4ncc(C(=O)NO)s4)CC3)cc2)c1
4. CCCCS(=O)(=O)N1CCN(c2ncc(C(=O)NO)s2)CC1

Result:
1: 99; 2: 99; 3: 99; 4: 94

Task: Any idea what its % inhibition HDAC @ 100 μM is? The compound is O=C(NO)c1cnc(N2CCN(S(=O)(=O)c3ccc(-c4ccc5c(c4)OCO5)cc3)CC2)s1
Result: 99
